# System: RARg homodimer (NR concentration 270 nM)
# method_description: PBM binding z-score (relative to random genomic background probes); higher = stronger binding; sequences stand for … in GC…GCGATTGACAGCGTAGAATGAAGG
Label condition not met if PBM binding z-score falls below 3; label condition met in every other case.

Solved cases (8 shown):
macromolecule_sequence | label_value
ATATCTAGGTAAAAGTTCAGTGAATCCCGAGGAT | condition not met
CCGAGTAGGTTACGTGGGGGCATTCAGTGCGAAT | condition not met
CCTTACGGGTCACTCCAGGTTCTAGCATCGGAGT | condition met
ATATGTAGGATAGGGTCATTCAGAAAGTAGGGAA | condition not met
ATATGTAGGTTAGAGTCATTCAGAAAGTAGGGAA | condition not met
CCTAGTTGGGCAGGAGGTCACACACCGGATATGA | condition met
CCGAGTAGGTTACGACGGGGCATTCAGTGCGAAT | condition not met
CTATGTAGGTTAAGGAGGTCATTCAGTTTGAAAG | condition met

q: Decide: is the reported value of PBM binding z-score for CGAACCAGGTCACCAGGACAGTGAAGAGGTTGGA equal to or greater than 3?
a: condition met

q: Decide: is the reported value of PBM binding z-score for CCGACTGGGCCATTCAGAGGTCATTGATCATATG equal to or greater than 3?
a: condition met

----------
# Tested on: THRa:RXRa (NR concentration 90 nM, RXRa partner concentration 90 nM)
# method_description: PBM binding z-score (relative to random genomic background probes); higher = stronger binding; sequences stand for … in GC…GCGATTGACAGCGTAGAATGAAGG
Use TRUE when the recorded PBM binding z-score is no lower than 3; use FALSE when it is lower.

As a guide, the following entries are already answered.
macromolecule_sequence | label_value
CTAACTAGGTCACCAGGACAGTGAAGAGGTTGGA | TRUE
CCTACGGGGCCAAAGGTCATTGATTCCAATGCTC | TRUE
ATATGCAGGTTAGGGTCATTCAGAAAGTAGGGAA | TRUE

q: Does PBM binding z-score meet or surpass 3 for CGTCCAAGGTCATGGGAGGTCAGTGAAGACAGAT ?
a: TRUE

q: Is the recorded value of PBM binding z-score equal to or greater than 3 for this sequence? ACTCGGAGGACAAAGGTCAGAACTACGCCAGTGA
a: TRUE

q: Hi, just wondering whether CCTAGTGGGTCAGGAGGTCACACACCGGATATGA shows PBM binding z-score of 3 or higher.
a: TRUE

q: Does the reported PBM binding z-score for CGAACTGGGTCAAAGGACAGTGAAAGGCGACGTA fall at or above the 3 mark?
a: FALSE

q: # bool: PBM binding z-score of CTATGTAGGTTAAGGGGCTCATTCAGTTTGAAAG >= 3
a: FALSE

q: Could you please find out whether CTATATAGGTTAAGGGGGTCATTCAGTTTGAAAG has PBM binding z-score that meets 3 or exceeds it?
a: TRUE

q: # bool: PBM binding z-score of CGTCCAAGGTCACCAGGTCAGTGAAAGCGACGTG >= 3
a: TRUE

q: In plain terms: is recorded PBM binding z-score at least 3 for TCGAGTAGGTTACGGGCGCATTCAGGGATGAAGA ?
a: FALSE

q: Does the reported PBM binding z-score for CGAACTAGGTCACCAGGACACTGAAGAGGTTGGA fall at or above the 3 mark?
a: TRUE

q: Check this sequence for PBM binding z-score at or above 3: TCTCGGAGGACACGAAAGGTCAGTGCTCGACATC
a: TRUE

q: Dear colleague, could you confirm whether CAGAGTAGGTTACGAGGGGGCATTCAGTGCGAAT has PBM binding z-score at or above 3?
a: TRUE

q: Is it the case that GGAACGAGGGCAAAGGTGATAGCATCTGTCGACG has PBM binding z-score reaching or exceeding 3?
a: FALSE

q: Can AGATGTAGGTTAGGGTCATTCAGAAAGTAGGGAA be said to have PBM binding z-score at or above 3?
a: TRUE

q: Does the sequence CCCAGTAGGTTACGAGGGGGCATTCAGTGCGAAT have recorded PBM binding z-score that is 3 or more?
a: TRUE

q: // inclusive: PBM binding z-score at least 3? input: CGAACTAGCTCAAGGACAGTGAATCTCCGCACGC
a: FALSE

q: Given the entry TCGACTAGGTTACGGGGGCATTCAGGGATGAAGA , answer whether its PBM binding z-score meets or surpasses 3.
a: TRUE

q: Entry ATCGAACGGTCGACGAGGTGAGTATACACCGTTT : is its PBM binding z-score no less than 3?
a: FALSE

q: Can CCGACTGGGGCAAAGGTCACCATACTCAGTACGA be said to have PBM binding z-score at or above 3?
a: TRUE

q: Could you please find out whether CGTCCAAGGTCCATGCTAGGTCAGTGAAAGCATT has PBM binding z-score that meets 3 or exceeds it?
a: FALSE
